# experimental.protocol: Retention time of the compound.
Listing of recorded Retention time by entry.

>  <record.smiles>
C[C@@H](NC(=O)[C@@H](N)Cc1ccc(O)cc1)C(=O)N[C@@H](Cc1ccccc1)c1nc(N[C@@H](Cc2ccc(O)cc2)C(=O)N2CCC[C@H]2C(=O)N[C@@H](CO)C(N)=O)no1

>  <Retention time, min>
22.7

$$$$
>  <record.smiles>
C[C@@H](NC(=O)[C@@H](N)Cc1ccc(O)cc1)C(=O)N[C@@H](Cc1ccccc1)c1n[nH]c(N[C@@H](Cc2ccc(O)cc2)C(=O)N2CCC[C@H]2C(=O)N[C@@H](CO)C(N)=O)n1

>  <Retention time, min>
20.6

$$$$
>  <record.smiles>
CCOC(=O)Cc1n[nH]c([C@H](Cc2ccccc2)NC(=O)OC(C)(C)C)n1

>  <Retention time, min>
22.1

$$$$
>  <record.smiles>
CC(C)(C)OC(=O)N[C@@H](Cc1ccccc1)c1nc(CCO)no1

>  <Retention time, min>
30.9

$$$$
>  <record.smiles>
C[C@@H](NC(=O)[C@@H](N)Cc1ccc(O)cc1)C(=O)N[C@@H](Cc1ccccc1)c1n[nH]c(CN[C@@H](Cc2ccc(O)cc2)C(=O)N2CCC[C@H]2C(=O)N[C@@H](CO)C(N)=O)n1

>  <Retention time, min>
20.2

$$$$
>  <record.smiles>
C[C@@H](NC(=O)[C@@H](N)Cc1ccc(O)cc1)C(=O)N[C@@H](Cc1ccccc1)c1nc(CN[C@@H](Cc2ccc(O)cc2)C(=O)N2CCC[C@H]2C(=O)N[C@@H](CO)C(N)=O)no1

>  <Retention time, min>
21

$$$$
>  <record.smiles>
C[C@@H](NC(=O)[C@@H](N)Cc1ccc(O)cc1)C(=O)N[C@@H](Cc1ccccc1)c1nnc(CN[C@@H](Cc2ccc(O)cc2)C(=O)N2CCC[C@H]2C(=O)N[C@@H](CO)C(N)=O)o1

>  <Retention time, min>
34

$$$$
>  <record.smiles>
C[C@@H](NC(=O)[C@@H](N)Cc1ccc(O)cc1)C(=O)N[C@@H](Cc1ccccc1)c1nnc(N[C@@H](Cc2ccc(O)cc2)C(=O)N2CCC[C@H]2C(=O)N[C@@H](CO)C(N)=O)o1

>  <Retention time, min>
22

$$$$

Recorded values, source ChEMBL document CHEMBL1132446.
